Values compiled from PubChem BioAssay (NCI).

System: 786-0 renal
Assay: NCI-60 one-dose screen, 48 h (100 = growth as untreated, 0 = no growth, -100 = all killed)
Settings: 10 µM unless noted
The panel holds about 83,000 compounds, 20% with a hit somewhere; the sample as a whole holds those more often.
Measured growth, listed per entry for reference.
observedProperty: growth (%)

>>> print(df.to_string())
                                 smilesdata  measurementunits  readoutvalue
0  COc1cc(/C=C/C(=O)c2c(C)nc3ccccc3c2C)ccc1OCCCOc1cc2c(cc1OC)C(=O)N1CCC[C@H]1C=N2                 %         -47.9
1  CCN(C)CCCOc1ccc(/C(=C(\C)Cc2cccc(OC)c2)c2ccc(OC(C)=O)cc2)cc1                 %           101
2            CCN(CC)CCNc1c(C)cc(CO)c(Cl)c1C                 %           103
3  COc1ccc(-c2cnc3ccnn3c2-c2cc(OC)c(OC)c(OC)c2)cc1                 %          40.3
4  COc1ccc(/C(=C\c2ccc3c(c2)OCO3)C(=O)Nc2nc3ccccc3s2)cc1                 %          97.2

* * *

System: CCRF-CEM leukemia
Assay: NCI-60 one-dose screen, 48 h
Settings: 10 µM unless noted
This is part of a sample that, as a whole, favours compounds with a hit. Of some 83,000 tested, about 20% had one in any assay. Calls of active or inactive are those of the source. How the source made its calls: active means growth percent below 10; inactive means the rest.
Classes used: Yes (active), No (inactive)

>>> df
                                    compound  discretelabel
 0  Nc1c(C(=O)c2ccc(Br)cc2)sc2nc3c(cc12)CCCC3             No
 1  COc1cc2nccc(Oc3ccc(NC(=O)C4(C(=O)Nc5c(F)cc(F)cc5F)CC4)cc3)c2cc1Oc1ccc(N)cn1             No
 2  O=C1/C(=C\c2cccn2Cc2ccc(F)cc2)c2ccccc2N1c1c(Cl)cccc1Cl             No
 3  CC(=O)N(C)c1ccc(Nc2cc(C)[nH]c3ccc4ncnc4c23)cc1             No
 4  COc1ccc2[nH]c(C(=O)OCc3ccc4c(Br)cc(Br)c(O)c4n3)cc2c1            Yes
 5  CCc1ccc2c(c1)N(CCO)C1=C(C(=O)OC1)C2c1cccc(Br)c1 (centres undefined)             No
 6  CC1(C)CC[C@]2(C(=O)N3CCNCC3)CC[C@]3(C)C(=CC[C@@H]4[C@@]5(C)CCC(=O)C(C)(C)[C@@H]5CC[C@]43C)[C@@H]2C1             No
 7  CC(C)(C)NC(=O)C(OC(=O)C1CCc2cc(F)ccc2O1)c1ccccc1Cl (centres undefined)             No
 8  Cc1cc(C)c2c(NC(=O)Nc3ccc(Cl)c(Cl)c3)n[nH]c2n1             No
 9  CN1CCN(Cc2ccc(NC(=O)c3ccc(C#N)c(C#Cc4cnc(N)c5ncccc45)c3)cc2C(F)(F)F)CC1             No
10              C=C(C)c1ccc(/C=N/NC(N)=S)cc1             No
11  COc1ccc(C(=O)C(C#N)c2cc(OC)c(OC)c(OC)c2)cc1 (centres undefined)             No
12  Cc1cc2nc3c(=O)[nH]c(=O)nc-3n(CC=O)c2cc1C             No
13   CN(C)c1ccc(/C=C(\C#N)c2nc3ccccc3n2C)cc1             No
14  NCCCOc1cc2ccccc2cc1C(=O)NCCCOc1cc2ccccc2cc1C(=O)Nc1ccc(Cl)cc1O            Yes
15  CCCCN(CCCC)CCC(O)c1cc2ccc(C(F)(F)F)cc2c2cc(C(F)(F)F)ccc12 (centres undefined)             No
16  COc1cc(/C=C/C(=O)c2c(C)nc3ccccc3c2C)ccc1OCCCOc1cc2c(cc1OC)C(=O)N1CCC[C@H]1C=N2            Yes
17  CC(=O)[C@@]1(O)[C@H](C)C[C@H]2[C@@H]3C=C(C)C4=Cc5c(cnn5-c5ccccc5)C[C@]4(C)[C@H]3[C@@H](O)C[C@@]21C            Yes
18  COc1cccc2nc(Nc3cccc(NC(=O)c4cc(N5CCOCC5)cc(C(F)(F)F)c4)c3)ccc12             No
